assay: Therapeutic index, ratio of IC50 for rat L6 cells to IC50 for trypomastigotes of Trypanosoma cruzi Tulahuen; format: cell-based; conditions: read-out: Ratio IC50
property label: selectivity ratio

Per the record, NC(=O)c1cccc(C(O)(c2ccc(Cl)cc2)c2cccnc2)c1 (racemic) has selectivity ratio of > 500

* * *

test: Apparent volume of distribution at steady state in Sprague-Dawley rat at 5.2 mg/kg, iv; format: ADME, organism-based; design: dose 5.2 mg/kg, route intravenous; conditions: in vivo, read-out: Vdss(app)
property label: Vd (L/kg)
Expressed in L/kg, but write only the number.

Vd for N#Cc1ccc(C(O)(c2ccc(C(F)(F)F)cc2)c2cccnc2)cc1 (racemic) is 5.7

* * *

assay: Elimination half life in Sprague-Dawley rat at 4.2 mg/kg, iv; assay type: ADME, organism-based; set-up: dose 4.2 mg/kg, route intravenous; conditions: in vivo, read-out: beta t1/2 (converted)
property label: half-life (h)
Report the figure in h without appending any unit label.

Given item NC(=O)c1cccc(C(O)(c2ccc(Cl)cc2)c2cccnc2)c1 (racemic) , the value recorded as its half-life is 6.1

* * *

test system: Trypanosoma cruzi; test: Antitrypanosomal activity against trypomastigotes of Trypanosoma cruzi Tulahuen expressing the beta- galactosidase gene infected rat L6 cells after 96 hrs; type: functional, organism-based; conditions: L6, 96 h
property label: pIC50
The quantity pIC50 is defined as the negative base-10 logarithm of the molar concentration.

// recorded pIC50 for CC(C)CNC(c1ccc(Cl)cc1)(c1cccnc1)c1ccccc1Cl (racemic) : 6.22

pIC50 recorded for this compound, CN(C)c1ccc(C(O)(c2ccc(C(F)(F)F)cc2)c2cccnc2)cc1 (racemic) , is 8.22

The compound OC(c1ccc(Cl)cc1)(c1ccc(C(F)(F)F)cc1)c1cncnc1 (racemic) showed pIC50 equal to 6.71

The recorded pIC50 for entry "OC(c1ccc(Cl)cc1)(c1ccc(Cl)cc1)c1cccnc1" equals 7.02

Briefly, pIC50 measured for COc1cccc(C(O)(c2ccc(Cl)cc2)c2cccnc2)c1 (racemic) : 7.22

According to the records, this compound CC(C)C(=O)Nc1ncc(C(O)(c2ccc(Cl)cc2)c2cccnc2)s1 (racemic) displays pIC50 of 7.68

GET /value?item= Cc1ccc(C(O)(c2ccc(Cl)cc2)c2cncnc2)cc1 (racemic) &field=pIC50 returns 7.62

Entry NC(=O)c1cccc(C(O)(c2ccc(Cl)cc2)c2cccnc2)c1 (racemic) , pIC50 reported as 7.52

The compound listed as Nc1ncc(C(O)(c2ccc(Cl)cc2)c2cccnc2)s1 (racemic) has a reported pIC50 of 6.59

The value of pIC50 measured for the compound CC(C)Oc1ccc(C(O)(c2cccnc2)c2cnc(Cl)nc2)cc1 (racemic) turned out to be 6.52

* * *

experiment: Plasma concentration in Swiss mouse at 50 mg/kg, po after 1 hr; format: ADME, organism-based; design: dose 50 mg/kg, route oral
property label: concentration at 1 h

Form field concentration at 1 h, entry "CC[C@@H]([C@H](C)O)n1ncn(-c2ccc(N3CCN(c4ccc(OC[C@@H]5CO[C@@](Cn6cncn6)(c6ccc(F)cc6F)C5)cc4)CC3)cc2)c1=O" : 6.4 µM

Value of measured concentration at 1 h for the entry NC(=O)c1cccc(C(O)(c2ccc(Cl)cc2)c2cccnc2)c1 (racemic) : 13.7 µM

* * *

molecular target: CYP3A4/5 (Homo sapiens, UniProt P08684+P20815); assay: Inhibition of […] in human liver microsomes at 20 uM; assay type: ADME, Microsome
Kindly supply the reported inhibition at 20 µM values for the records listed here.
Answer with a number only, understood to be in %.

Form field inhibition at 20 µM, entry OC(c1ccc(Cl)cc1)(c1cncnc1)c1ccccc1Cl (configuration not stated) [FENARIMOL] : 66

Per the record, CC[C@@H]([C@H](C)O)n1ncn(-c2ccc(N3CCN(c4ccc(OC[C@@H]5CO[C@@](Cn6cncn6)(c6ccc(F)cc6F)C5)cc4)CC3)cc2)c1=O [POSACONAZOLE] has inhibition at 20 µM of 98
